Where these numbers come from: the Human Domainome abundance scans (Beltran et al. 2025)

B1: POU domain, class 4, transcription factor 2, residues 256 to 327; numbered along this chain, Q12837 (parent)
chain: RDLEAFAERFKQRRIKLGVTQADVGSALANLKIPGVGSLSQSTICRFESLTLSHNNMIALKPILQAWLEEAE

# Variants of: B1
# Run Description: abundance fitness (aPCA) (normalised: wild type 0, dead -1); higher = more abundant; growth selection in yeast, the domain comes from the species named
# Condition Description: Homo sapiens
Answer f if abundance fitness is under -0.3, and t if it is -0.3 or more.

In: Could you verify whether the entry `RDLEAFAERFKQRRIKLGVTQADVGSALANAKIPGVGSLSQSTICRFESLTLSHNNMIALKPILQAWLEEAE` shows abundance fitness of no less than -0.3?
Out: f

In: Could you verify whether the entry `RDLEAFAERFKQRRIKLGVTQADVGSALANLKIPGVGSLSQSTICRFESLTLSHWNMIALKPILQAWLEEAE` shows abundance fitness of no less than -0.3?
Out: f

In: Could you verify whether the entry `RDLEAFAERFKQRRIKLGVTQADVGSALANLKIPGVGSLSQSTDCRFESLTLSHNNMIALKPILQAWLEEAE` shows abundance fitness of no less than -0.3?
Out: f

In: Could you verify whether the entry `RDLEAFAERFKQRRIKLGVTQADVGSALANLKIPGVGSLSQSHICRFESLTLSHNNMIALKPILQAWLEEAE` shows abundance fitness of no less than -0.3?
Out: t

In: Could you verify whether the entry `RDLEAFAERFKQRRIKLGVTQADVGSALATLKIPGVGSLSQSTICRFESLTLSHNNMIALKPILQAWLEEAE` shows abundance fitness of no less than -0.3?
Out: t

In: Could you verify whether the entry `RDLEAFAERFKQRRIKLGVLQADVGSALANLKIPGVGSLSQSTICRFESLTLSHNNMIALKPILQAWLEEAE` shows abundance fitness of no less than -0.3?
Out: f

In: Could you verify whether the entry `RDLEAFAERFKQRRIKLGVTQADVGSALANLKIPGVGSLSQSTICRFESLTLSHNNMFALKPILQAWLEEAE` shows abundance fitness of no less than -0.3?
Out: t

In: Could you verify whether the entry `RDLEAFAERFKQRRIKLGVTQADVGSALANLKIPGVGSLSQSTIARFESLTLSHNNMIALKPILQAWLEEAE` shows abundance fitness of no less than -0.3?
Out: t

In: Could you verify whether the entry `RDLEAFAERFKQRRIKLGVTQADVGSALANLKIPGVGSLSFSTICRFESLTLSHNNMIALKPILQAWLEEAE` shows abundance fitness of no less than -0.3?
Out: f
